# test.summary: Displacement of [3H]quinuclidinyl benzilate from Wistar rat cerebral cortex membrane muscarinic AChR assessed as inhibition constant by liquid scintillation counter
pKi: −log10 of the molar value.
recorded.endpoint: pKi

Reference set (3 entries):
1. C[C@@H]1CCCN1CCCOc1ccc2c(c1)CC[C@H]1[C@H]3[C@@H]4C[C@@H]4C(=O)N[C@@]3(C)CC[C@H]21 ... 5.44
2. C[C@@H]1CCCN1CCCOc1ccc2c(c1)CC[C@H]1C3=CCC(=O)N(C)[C@@]3(C)CC[C@H]21 ... 5.82
3. C[C@@H]1CC(=O)N[C@@]2(C)CC[C@@H]3c4ccc(OCCCN5CCC[C@H]5C)cc4CC[C@H]3[C@H]12 ... 5.60

[a] C[C@@H]1CCCN1CCCOc1ccc2c(c1)CC[C@H]1[C@@H]3[C@H](C#N)CC(=O)N[C@@]3(C)CC[C@H]21
[b] C[C@@H]1CCCN1CCCOc1ccc2c(c1)CC[C@@H]1[C@@H]2CC[C@@]2(C)[C@H]1CCCN2C(=O)C(C)(C)C
(Q) Parameter check: reported pKi is higher for which label, a or b ? Field: selected label. Fill in the label of the entry you choose.
(A) b
